Test: in vivo
Conditions: male beagle dogs, IV infusion over 30 minutes, 0.5 or 1.0 mg/kg
readout: DOG IV T1/2 (h)
Answers are plain numbers, in h.

structureAsSmiles: COC(=O)N[C@H](C(=O)N[C@@H](Cc1ccc(C#Cc2ccc(N3CC4CCC(C3)N4C3COC3)nc2)cc1)[C@@H](O)CN(Cc1c(F)cc(-c2ccn(C(F)F)n2)cc1F)NC(=O)[C@@H](NC(=O)OC)C(C)(C)C(F)(F)F)C(C)(C)C(F)(F)F
DOG IV T1/2 [h]: 13.8

Now for the compound whose DOG IV T1/2 we want.
Query: Answer with the recorded DOG IV T1/2 for the compound listed here: COC(=O)N[C@H](C(=O)N[C@@H](Cc1ccc(C#Cc2ccc(N3CC4CCC(C3)N4C3COC3)nc2)cc1)[C@@H](O)CN(Cc1ccc(-c2cnn(C(F)F)c2)cc1)NC(=O)[C@@H](NC(=O)OC)C(C)(C)C(F)(F)F)C(C)(C)C(F)(F)F
Result: 8.16

---

Details: human, microsomes
readout: Human Pred Cl. (L/H/kg)
Give bare numbers, in L/H/kg.

structureAsSmiles: COC(=O)N[C@H](C(=O)N[C@@H](Cc1ccc(-c2ccc(N3CC4CCC(C3)N4C3COC3)nc2)cc1)[C@@H](O)CN(Cc1c(F)cc(-c2ccn(C(F)F)n2)cc1F)NC(=O)[C@@H](NC(=O)OC)C(C)(C)C(F)(F)F)C(C)(C)C(F)(F)F
valueUnit: L/H/kg
Human Pred Cl.: 0.16
//
structureAsSmiles: COC(=O)N[C@H](C(=O)N[C@@H](Cc1ccc(C#Cc2ccc(N3CC4CC(C3)N4C3COC3)nc2)cc1)[C@@H](O)CN(Cc1c(F)cc(-c2cnn(C(F)F)c2)cc1F)NC(=O)[C@@H](NC(=O)OC)C(C)(C)C(F)(F)F)C(C)(C)C(F)(F)F
valueUnit: L/H/kg
Human Pred Cl.: 0.12
//
structureAsSmiles: COC(=O)N[C@H](C(=O)N[C@@H](Cc1ccc(C#Cc2ccc(N3CC4CC(C3)N4C3COC3)nc2)cc1)[C@@H](O)CN(Cc1c(F)cc(-c2ccccn2)cc1F)NC(=O)[C@@H](NC(=O)OC)C(C)(C)C(F)(F)F)C(C)(C)C(F)(F)F
valueUnit: L/H/kg
Human Pred Cl.: 0.67

From here, focus on the item given below.
Query: Look up and state reported Human Pred Cl. for COC(=O)N[C@H](C(=O)N[C@@H](Cc1ccc(-c2ccc(N3CC4CCC(C3)N4C3COC3)nc2)cc1)[C@@H](O)CN(Cc1c(F)cc(-c2ccn(CC(F)F)n2)cc1F)NC(=O)[C@@H](NC(=O)OC)C(C)(C)C(F)(F)F)C(C)(C)C(F)(F)F
Result: 0.12

---

Conditions: human liver microsomes 0.5 mg/mL, 1 uM compound, NADPH
Exercise: for every item that follows, state its recorded Human Pred Cl..
Numbers only, in L/H/kg.

structureAsSmiles: COC(=O)N[C@H](C(=O)NN(Cc1c(F)cc(-c2ccn(C3CC3)n2)cc1F)C[C@H](O)[C@H](Cc1ccc(C#Cc2ccc(N3C[C@H]4C[C@@H]3CN4C3COC3)nc2)cc1)NC(=O)[C@@H](NC(=O)OC)C(C)(C)C(F)(F)F)C(C)(C)C
Human Pred Cl., L/H/kg: 0.14

Query: Identify the reported Human Pred Cl. for the following entry. COC(=O)N[C@H](C(=O)N[C@@H](Cc1ccc(C#Cc2ccc(N3C[C@H]4C[C@@H]3CN4C3COC3)nc2)cc1)[C@@H](O)CN(Cc1c(F)cc(-c2ncccn2)cc1F)NC(=O)[C@@H](NC(=O)OC)C(C)(C)C(F)(F)F)C(C)(C)C(F)(F)F
Result: 0.19
